# Tested on: HDAC
# method: HDAC inhibitory activity in RPMI 8226 cells (MAL substrate, UHPLC-MS)
# Format: cell-based, human
# experimental_setup: 10 µM, 8 h
reported_endpoint: Inhibition of HDAC activity (%)
# number only, unit % dropped from output

Answered cases to consult:
molecule	Inhibition of HDAC activity / %
CC(C)C[C@H](NC(=O)[C@@H](Cc1ccccc1)NC(=O)Cc1ccc(C(=O)Nc2ccc(F)cc2N)cc1)B1OC2CC3CC(C3(C)C)[C@@]2(C)O1 (some centres unmarked) [Compound 7]	37
CC(C)C[C@H](NC(=O)[C@@H](Cc1ccc(N(CCCl)CCCl)cc1)NC(=O)c1cnc(C(=O)Nc2ccccc2N)cn1)B1OC2CC3CC(C3(C)C)[C@]2(C)O1 (some centres unmarked) [Compound 11]	25
Nc1ccccc1NC(=O)c1ccc(CNC(=O)OCc2cccnc2)cc1 [Ent, entinostat]	51
CC(C)C[C@H](NC(=O)[C@@H](Cc1ccccc1)NC(=O)c1cnc(C(=O)Nc2ccccc2N)cn1)B1OC2CC3CC(C3(C)C)[C@]2(C)O1 (some centres unmarked) [Compound 3]	33

Provide Inhibition of HDAC activity, recorded with HDAC, of CC(C)C[C@H](NC(=O)[C@@H](Cc1ccccc1)NC(=O)c1ccc(C(=O)Nc2ccccc2N)cc1)B1OC2CC3CC(C3(C)C)[C@]2(C)O1 (some centres unmarked) [Compound 2]
50

These entries and their values trace back to paper PMC9920246.
